Source of measurements: ChEMBL document CHEMBL1130280

target: 5-hydroxytryptamine receptor 1D (Homo sapiens, UniProt P28221); test: Compound was tested for its binding affinity against human recombinant 5-hydroxytryptamine 1D receptor alpha for comparison purpose.
Sequence (P28221 whole entry): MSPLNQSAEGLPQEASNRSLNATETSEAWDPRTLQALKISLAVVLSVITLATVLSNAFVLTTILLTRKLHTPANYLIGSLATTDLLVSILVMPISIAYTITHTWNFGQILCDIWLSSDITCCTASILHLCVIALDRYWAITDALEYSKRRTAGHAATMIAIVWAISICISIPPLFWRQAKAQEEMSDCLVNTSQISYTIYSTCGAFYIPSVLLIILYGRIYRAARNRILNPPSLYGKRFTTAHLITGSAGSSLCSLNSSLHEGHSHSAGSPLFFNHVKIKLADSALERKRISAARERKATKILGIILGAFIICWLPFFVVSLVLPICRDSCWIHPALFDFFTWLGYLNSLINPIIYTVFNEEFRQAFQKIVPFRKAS
// classify: if (Ki < 100 nM) criterion met else criterion not met

For orientation, consider the following solved cases.
MOL: CN(CCOc1cccc2ccccc12)Cc1ccccc1
ASSIGNED_CLASS: criterion not met

MOL: CCCCN(CC)CCOc1cccc2ccccc12
ASSIGNED_CLASS: criterion not met

[in] Please check: Ki for "CCCN(C)CCCOc1ccccc1C1CCCC1" , strictly under 100 nM or not?
[out] criterion not met

[in] Please check: Ki for "CNCCOc1ccccc1" , strictly under 100 nM or not?
[out] criterion not met

[in] Please check: Ki for "CCCN(C)CCOc1ccccc1C1CCCC1" , strictly under 100 nM or not?
[out] criterion met
